Listed here are compounds together with their documented GI50.
test system: 786-0; assay: NCI tumour cell line growth inhibition, 48 h
Calls of active or inactive are those of the source. No stated cut-off is given here; in the data, active = GI50 up to about 1.1 µM and inactive = higher. Where a SMILES comes first, the peptide text is derived from it. [ ]: non-standard residue; d: D form. The star is where a group is joined. ξ: configuration not given here. ξF = NC(Cc1ccccc1)C(=O)O; Cbz = O=C(OCc1ccccc1)*; Aib = CC(C)(N)C(=O)O; NHNH2 = NN*

- COMPOUND: "C/C=N\\n1c(C)c(C#N)c(C#N)c1N"
  GI50: "> 100 µM (inactive)"
- COMPOUND: "CC(C)(NC(=O)OCc1ccccc1)C(=O)NC(Cc1ccccc1)C(=O)NN (stereo not given) (Cbz-[Aib]-[ξF]-NHNH2)"
  GI50: "> 100 µM (inactive)"
- COMPOUND: "O=Cc1c(-c2ccccc2)nc2ccccc2c1O"
  GI50: "49.2 µM (inactive)"
- COMPOUND: "O=S(=O)(c1ccc2ccccc2c1)N1CCN(S(=O)(=O)c2ccc3ccccc3c2)CC1"
  GI50: "> 100 µM (inactive)"
- COMPOUND: "CCCCCCCCSC(SCCCCCCCC)=C1C(=O)N(c2ccccc2)N=C1C"
  GI50: "46.1 µM (inactive)"
